src = patent US20170114140A1

In this section we review reported % Inhib. of IL-5 production (TSLP treated human PBMC + IL-2 + IL-25), Expt. 2 values for a set of binders.
Target: human IL-17RA on cells (human PBMC; human foreskin fibroblasts) (human, UniProt Q96F46 33-866)
Assay: cell-based or functional assay
QUANTITY MEASURED: % Inhib. of IL-5 production (TSLP treated human PBMC + IL-2 + IL-25), Expt. 2 (%)

BINDER: 2.133.1 (antibody, V domains shown) VH: QVQLQESGPGLVKPSETLSLTCTVSGGSISNYYWNWIRQSPGKGLEWIGDIYYSGSTNYNPSLKSRVTISVDTSKNQFSLKLSSVTTADTAVYYCARDGELANYYGSGSYQFYYYYGMDVWGQGTTVTVSS VL: DILMTQSPSSLSASVGDRVTITCRASQGIRNDLGWYQQKPGKAPKRLIYAASSLQSGVPSRFSGSGSGTEFTLTISSLQPEDFATYYCLQHNSNPFTFGPGTKVDIK
MEASUREMENT UNITS: %
QUANTITATIVE READOUT: 16

BINDER: 4.393.1 (antibody, V domains shown) VH: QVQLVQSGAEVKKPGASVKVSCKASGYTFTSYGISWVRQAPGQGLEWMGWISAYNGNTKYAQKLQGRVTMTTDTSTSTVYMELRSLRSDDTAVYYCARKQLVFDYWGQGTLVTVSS VL: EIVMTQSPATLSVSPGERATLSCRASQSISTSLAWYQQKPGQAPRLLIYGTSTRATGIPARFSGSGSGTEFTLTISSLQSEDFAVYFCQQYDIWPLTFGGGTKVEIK
MEASUREMENT UNITS: %
QUANTITATIVE READOUT: 72

BINDER: 2.67.1 (antibody, V domains shown) VH: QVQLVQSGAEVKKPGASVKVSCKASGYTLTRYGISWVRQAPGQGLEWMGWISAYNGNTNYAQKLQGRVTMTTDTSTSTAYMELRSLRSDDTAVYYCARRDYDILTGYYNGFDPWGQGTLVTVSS VL: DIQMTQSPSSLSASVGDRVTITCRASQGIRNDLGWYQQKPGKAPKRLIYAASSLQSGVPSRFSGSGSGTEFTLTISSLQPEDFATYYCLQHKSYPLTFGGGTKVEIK
MEASUREMENT UNITS: %
QUANTITATIVE READOUT: 13
